Assay details: Biodistribution in PC-3 tumor-bearing CB17-SCID mice
Type: in vivo
Test conditions: CB17-SCID, mouse, liver, intravenous, 3.62 mg/kg, total radioactivity, 24 h after injection, coinjection of natLu-RM2 3.62 mg/kg, n = 3; read-out: Biodistribution, Liver, competition study
Description: A detailed description of tumor inoculation is provided in the supplemental materials. Approximately 2–5 MBq (100 pmol, 150 μL) of the ^177Lu-labeled GRPR ligands were injected into the tail vein of anesthetized (2% isoflurane) PC-3 tumor–bearing mice (biodistribution, n = 4; imaging, n = 1). For biodistribution studies, organs were removed, weighed, and measured in a γ-counter (Perkin Elmer) after euthanasia at 24 h after injection. […]
Experimental endpoint: tissue uptake at 24 h (%ID/g)

{"columns": ["Compound", "Recorded value"],
 "data": [
  ["CC(C)C[C@H](NC(=O)C[C@H](O)[C@H](CC(C)C)NC(=O)[C@H](Cc1c[nH]cn1)NC(=O)CNC(=O)[C@@H](NC(=O)[C@H](C)NC(=O)[C@](C)(Cc1c[nH]c2ccccc12)NC(=O)[C@H](CCC(N)=O)NC(=O)[C@@H](Cc1ccccc1)NC(=O)CN1CCC(NC(=O)CN2CCN(CC(=O)O)CCN(CC(=O)O)CCN(CC(=O)O)CC2)CC1)C(C)C)C(N)=O [^177Lu-AMTG, ^177Lu-α-Me-L-Trp^8-RM2, metal not drawn]", 1.4],
  ["CC(C)C[C@H](NC(=O)C[C@H](O)[C@H](CC(C)C)NC(=O)[C@H](Cc1c[nH]cn1)NC(=O)CNC(=O)[C@@H](NC(=O)[C@H](C)NC(=O)[C@](C)(Cc1c[nH]c2ccccc12)NC(=O)[C@H](CCC(N)=O)NC(=O)[C@@H](Cc1ccccc1)NC(=O)CN1CCC(NC(=O)CCC(C(=O)O)N2CCN(CC(=O)O)CCN(CC(=O)O)CCN(CC(=O)O)CC2)CC1)C(C)C)C(N)=O (stereo partly drawn) [^177Lu-AMTG2, ^177Lu-DOTAGA-α-Me-L-Trp^8-RM2, metal not drawn]", 0.74]
]}

* * *

Assay details: Biodistribution in PC-3 tumor-bearing CB17-SCID mice
Format: in vivo
Test conditions: CB17-SCID, mouse, bone, intravenous, 100 pmol, total radioactivity, 24 h after injection, 100 pmol, n = 4; read-out: Biodistribution, Bone

{"columns": ["Molecule", "tissue uptake at 24 h (%ID/g)"],
 "data": [
  ["CC(C)C[C@H](NC(=O)C[C@H](O)[C@H](CC(C)C)NC(=O)[C@H](Cc1c[nH]cn1)NC(=O)CNC(=O)[C@@H](NC(=O)[C@H](C)NC(=O)[C@](C)(Cc1c[nH]c2ccccc12)NC(=O)[C@H](CCC(N)=O)NC(=O)[C@@H](Cc1ccccc1)NC(=O)CN1CCC(NC(=O)CN2CCN(CC(=O)O)CCN(CC(=O)O)CCN(CC(=O)O)CC2)CC1)C(C)C)C(N)=O [^177Lu-AMTG, ^177Lu-α-Me-L-Trp^8-RM2, metal not drawn]", 0.05],
  ["CC(C)C[C@H](NC(=O)C[C@H](O)[C@H](CC(C)C)NC(=O)[C@H](Cc1c[nH]cn1)NC(=O)CNC(=O)[C@@H](NC(=O)[C@H](C)NC(=O)[C@H](Cc1c[nH]c2ccccc12)NC(=O)[C@H](CCC(N)=O)NC(=O)[C@@H](Cc1ccccc1)NC(=O)CN1CCC(NC(=O)CN2CCN(CC(=O)O)CCN(CC(=O)O)CCN(CC(=O)O)CC2)CC1)C(C)C)C(N)=O [^177Lu-RM2, metal not drawn, reference compound]", 1.31],
  ["CC(C)C[C@H](NC(=O)C[C@H](O)[C@H](CC(C)C)NC(=O)[C@H](Cc1c[nH]cn1)NC(=O)CNC(=O)[C@@H](NC(=O)[C@H](C)NC(=O)[C@](C)(Cc1c[nH]c2ccccc12)NC(=O)[C@H](CCC(N)=O)NC(=O)[C@@H](Cc1ccccc1)NC(=O)CN1CCC(NC(=O)CCC(C(=O)O)N2CCN(CC(=O)O)CCN(CC(=O)O)CCN(CC(=O)O)CC2)CC1)C(C)C)C(N)=O (stereo partly drawn) [^177Lu-AMTG2, ^177Lu-DOTAGA-α-Me-L-Trp^8-RM2, metal not drawn]", 0.22]
]}

* * *

Assay details: Biodistribution in PC-3 tumor-bearing CB17-SCID mice
Format: in vivo
Test conditions: CB17-SCID, mouse, intestine, intravenous, total radioactivity; 24 h after injection, 100 pmol, n = 4; read-out: Biodistribution, Intestine

{"columns": ["Compound", "tissue uptake at 24 h"],
 "data": [
  ["CC(C)CC(CC(C)C)NC(=O)[C@H](Cc1cnc[nH]1)NC(=O)CNC(=O)[C@@H](NC(=O)[C@H](C)NC(=O)[C@H](Cc1c[nH]c2ccccc12)NC(=O)[C@H](CCC(N)=O)NC(=O)[C@@H](Cc1ccccc1)NC(=O)COCC(=O)Nc1ccc(CNC(=O)CN2CCN(CC(=O)O)CCN(CC(=O)O)CCN(CC(=O)O)CC2)cc1)C(C)C [^177Lu-NeoBOMB1, metal not drawn, reference compound]", "0.85 %ID/g"]
]}

* * *

Assay details: Biodistribution in PC-3 tumor-bearing CB17-SCID mice
Type: in vivo
Test conditions: CB17-SCID, mouse, lung, intravenous, 3.62 mg/kg, total radioactivity, 24 h after injection, coinjection of natLu-RM2 3.62 mg/kg, n = 3; read-out: Biodistribution, Lung, competition study

{"columns": ["Compound", "Measurement units", "tissue uptake at 24 h"],
 "data": [
  ["CC(C)C[C@H](NC(=O)C[C@H](O)[C@H](CC(C)C)NC(=O)[C@H](Cc1c[nH]cn1)NC(=O)CNC(=O)[C@@H](NC(=O)[C@H](C)NC(=O)[C@](C)(Cc1c[nH]c2ccccc12)NC(=O)[C@H](CCC(N)=O)NC(=O)[C@@H](Cc1ccccc1)NC(=O)CN1CCC(NC(=O)CCC(C(=O)O)N2CCN(CC(=O)O)CCN(CC(=O)O)CCN(CC(=O)O)CC2)CC1)C(C)C)C(N)=O (stereo partly drawn) [^177Lu-AMTG2, ^177Lu-DOTAGA-α-Me-L-Trp^8-RM2, metal not drawn]", "%ID/g", 1.18],
  ["CC(C)C[C@H](NC(=O)C[C@H](O)[C@H](CC(C)C)NC(=O)[C@H](Cc1c[nH]cn1)NC(=O)CNC(=O)[C@@H](NC(=O)[C@H](C)NC(=O)[C@](C)(Cc1c[nH]c2ccccc12)NC(=O)[C@H](CCC(N)=O)NC(=O)[C@@H](Cc1ccccc1)NC(=O)CN1CCC(NC(=O)CN2CCN(CC(=O)O)CCN(CC(=O)O)CCN(CC(=O)O)CC2)CC1)C(C)C)C(N)=O [^177Lu-AMTG, ^177Lu-α-Me-L-Trp^8-RM2, metal not drawn]", "%ID/g", 0.27]
]}

* * *

tissue uptake at 24 h by entry:
Assay details: Biodistribution in PC-3 tumor-bearing CB17-SCID mice
Type: in vivo
Test conditions: CB17-SCID, mouse, kidney, intravenous, 3.62 mg/kg, total radioactivity, 24 h after injection, coinjection of natLu-RM2 3.62 mg/kg, n = 3; read-out: Biodistribution, Kidney, competition study
Description: A detailed description of tumor inoculation is provided in the supplemental materials. Approximately 2–5 MBq (100 pmol, 150 μL) of the ^177Lu-labeled GRPR ligands were injected into the tail vein of anesthetized (2% isoflurane) PC-3 tumor–bearing mice (biodistribution, n = 4; imaging, n = 1). For biodistribution studies, organs were removed, weighed, and measured in a γ-counter (Perkin Elmer) after euthanasia at 24 h after injection. […]

{"columns": ["Compound", "tissue uptake at 24 h"],
 "data": [
  ["CC(C)C[C@H](NC(=O)C[C@H](O)[C@H](CC(C)C)NC(=O)[C@H](Cc1c[nH]cn1)NC(=O)CNC(=O)[C@@H](NC(=O)[C@H](C)NC(=O)[C@](C)(Cc1c[nH]c2ccccc12)NC(=O)[C@H](CCC(N)=O)NC(=O)[C@@H](Cc1ccccc1)NC(=O)CN1CCC(NC(=O)CCC(C(=O)O)N2CCN(CC(=O)O)CCN(CC(=O)O)CCN(CC(=O)O)CC2)CC1)C(C)C)C(N)=O (stereo partly drawn) [^177Lu-AMTG2, ^177Lu-DOTAGA-α-Me-L-Trp^8-RM2, metal not drawn]", "1.63 %ID/g"],
  ["CC(C)C[C@H](NC(=O)C[C@H](O)[C@H](CC(C)C)NC(=O)[C@H](Cc1c[nH]cn1)NC(=O)CNC(=O)[C@@H](NC(=O)[C@H](C)NC(=O)[C@](C)(Cc1c[nH]c2ccccc12)NC(=O)[C@H](CCC(N)=O)NC(=O)[C@@H](Cc1ccccc1)NC(=O)CN1CCC(NC(=O)CN2CCN(CC(=O)O)CCN(CC(=O)O)CCN(CC(=O)O)CC2)CC1)C(C)C)C(N)=O [^177Lu-AMTG, ^177Lu-α-Me-L-Trp^8-RM2, metal not drawn]", "1.17 %ID/g"]
]}
